Test system: AABA1060 (clinical isolate of Acinetobacter baumannii)
Assay: MIC broth microdilution, AABA1060
Format: cell-based
Condition Parameters: Acinetobacter baumannii, read-out: MIC AABA1060
Experimental: Bacterial isolates were cultivated from −70° C. frozen stocks by overnight passages at 35° C. in ambient air on Mueller-Hinton agar (Beckton Dickinson, Franklin Lakes, N.J.). […] Minimum Inhibitory Concentrations (MICs) were determined by the broth microdilution method in accordance with the Clinical and Laboratory Standards Institute (CLSI) guidelines. […]
Attribute Measured: MIC

State its MIC: C[C@@H](N)[C@H](NC(=O)c1ccc(C#Cc2ccc(CCO)cc2)cc1)C(=O)NO
2 to 16 µg/mL

Tell me MIC reported for NC[C@H](NC(=O)c1ccc(C#C/C=C/c2ccc(CO)cc2)cc1)C(=O)NO
16 to 64 µg/mL

Entry C[C@@H](N)[C@H](NC(=O)c1ccc(C#Cc2ccc(CN3CCc4[nH]ncc4C3)cc2)cc1)C(=O)NO needs its MIC filled in; supply it.
2 to 16 µg/mL

Look up and report measured MIC for this entry: C[C@@H](N)[C@H](NC(=O)c1ccc(C#Cc2ccc(CN)cc2)cc1)C(=O)NO
> 64 µg/mL

Return reported MIC. Input molecule: C[C@@H](N)[C@H](NC(=O)c1ccc(C#C/C=C/c2cccnc2)cc1)C(=O)NO
16 to 64 µg/mL

Give the reported MIC for this molecule. C[C@@H](N)[C@H](NC(=O)c1ccc(C#CC#Cc2cccc(F)c2)cc1)C(=O)NO
2 to 16 µg/mL

Identify the reported MIC for the following entry. C[C@@H](N)[C@H](NC(=O)c1ccc(C#Cc2ccc(NC(=O)CNC3CC3)cc2)cc1)C(=O)NO
2 to 16 µg/mL

Give the value of MIC reported for the following: O=C(NC(C(=O)NO)C(F)(F)F)c1ccc(/C=C/C#Cc2ccc(CN3CCOCC3)cc2)cc1 (stereo not drawn)
< 2 µg/mL

Please look at this molecule and report its MIC: C[C@@H](N)[C@H](NC(=O)c1ccc(C#Cc2ccc(CN3CCC(F)(F)CC3)cc2)cc1)C(=O)NO
2 to 16 µg/mL

For the molecule C[C@@H](N)[C@H](NC(=O)c1ccc(C#CC#Cc2ccc(NS(C)(=O)=O)cc2)cc1)C(=O)NO , give its measured MIC value.
< 2 µg/mL

Please report MIC for the following molecule: C[C@@H](O)[C@H](NC(=O)c1ccc(C#Cc2ccc(O)cc2)cc1)C(=O)NO
16 to 64 µg/mL

Look up MIC of C[C@H](O)[C@H](NC(=O)c1ccc(C#C/C=C/c2ccc(CNC3CC3)cc2)cc1)C(=O)NO and report it.
16 to 64 µg/mL

# return recorded MIC for input CC(C)(N)[C@H](NC(=O)c1ccc(C#CC#Cc2ccc(CNC3CC3)cc2)cc1)C(=O)NO
< 2 µg/mL

Return reported MIC. Input molecule: CC(C)[C@H](NC(=O)c1ccc(C#C/C=C/c2ccc(CN3CCOCC3)cc2)cc1)C(=O)NO
2 to 16 µg/mL

Note down MIC recorded for NC[C@H](NC(=O)c1ccc(/C=C/C#Cc2ccc(CO)cc2)cc1)C(=O)NO
> 64 µg/mL

Specify measured MIC for C[C@@H](N)[C@H](NC(=O)c1ccc(C#CC#Cc2ccccn2)cc1)C(=O)NO .
16 to 64 µg/mL

State, in one line, measured MIC of C[C@@H](O)[C@H](NC(=O)c1ccc(C#Cc2ccc(CNCC(F)F)cc2)cc1)C(=O)NO
2 to 16 µg/mL

Dear colleague, please send me the reported MIC for NC[C@H](NC(=O)c1ccc(C#C/C=C/c2ccc(CNC3CC3)cc2)cc1)C(=O)NO when you can.
16 to 64 µg/mL

Determine its reported MIC: CCC#CC#Cc1ccc(C(=O)N[C@H](C(=O)NO)[C@@H](C)N)cc1
2 to 16 µg/mL

Give the reported MIC for this molecule. CC(C)/C=C/C#Cc1ccc(C(=O)N[C@H](C(=O)NO)C(C)(C)N)cc1
< 2 µg/mL

Please give the documented MIC of C[C@@H](NCC(=O)N[C@H](C)[C@H](NC(=O)c1ccc(C#Cc2ccccc2)cc1)C(=O)NO)c1ccccc1
16 to 64 µg/mL

Query MIC for C[C@@H](O)[C@H](NC(=O)c1ccc(/C=C/C#Cc2cccc(F)c2)cc1)C(=O)NO
2 to 16 µg/mL

Specify reported MIC for the molecule shown: CCOCc1ccc(C#CC#Cc2ccc(C(=O)N[C@H](C(=O)NO)[C@@H](C)O)cc2)cc1
2 to 16 µg/mL

Recall and state the measured MIC for C[C@@H](N)[C@H](NC(=O)c1ccc(C#CC#Cc2ccccc2F)cc1)C(=O)NO .
< 2 µg/mL

Check the records and state MIC for O=C(N[C@H](C(=O)NO)c1ccccc1)c1ccc(/C=C/C#Cc2ccc(CN3CCOCC3)cc2)cc1
16 to 64 µg/mL

State, in one line, measured MIC of C[C@H](O)[C@H](NC(=O)c1ccc(C#C/C=C/c2ccc(CO)cc2)cc1)C(=O)NO
16 to 64 µg/mL

Hello, please tell me recorded MIC for this one: CC(C)(O)[C@H](NC(=O)c1ccc(C#CC#Cc2cccc(F)c2)cc1)C(=O)NO
< 2 µg/mL

Give the value of MIC reported for the following: CC(=O)NC[C@H](NC(=O)c1ccc(/C=C/C#Cc2ccc(CN3CCOCC3)cc2)cc1)C(=O)NO
2 to 16 µg/mL

Return MIC (reported value) for this molecule: CCOCc1ccc(C#C/C=C/c2ccc(C(=O)N[C@H](C(=O)NO)[C@@H](C)N)cc2)cc1
2 to 16 µg/mL

State, in one line, measured MIC of C[C@H](N)[C@H](NC(=O)c1ccc(C#Cc2ccccc2)cc1)C(=O)NO
< 2 µg/mL
